I'd appreciate it if you could supply IC50 values for the items below.
# study-system: c-MET (purified GST fusion protein containing the Met kinase domain) (Homo sapiens, UniProt P08581)
# Construct: Purified GST fusion protein containing the Met kinase domain, Sugen, Inc
# Sequence (P08581 1078-1345 limits assumed): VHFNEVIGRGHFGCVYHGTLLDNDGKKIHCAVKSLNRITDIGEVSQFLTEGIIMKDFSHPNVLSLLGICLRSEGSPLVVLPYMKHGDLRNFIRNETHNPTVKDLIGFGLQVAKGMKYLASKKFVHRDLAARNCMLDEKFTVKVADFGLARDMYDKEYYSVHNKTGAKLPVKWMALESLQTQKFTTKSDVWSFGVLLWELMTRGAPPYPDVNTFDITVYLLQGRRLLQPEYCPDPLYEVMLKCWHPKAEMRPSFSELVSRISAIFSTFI
# method-summary: Met transphosphorylation assay (ELISA, poly(Glu,Tyr) 4:1 substrate)
# settings: purified GST-Met kinase domain 10 ng/well

Input: State the recorded IC50 for this entry: Oc1ccc(Cn2cnc3ncc(-c4cccs4)nc32)cc1 [Example 1]
Output: 150 nM

Input: Query: IC50; subject: Fc1ccc(Cn2nnc3ncc(-c4ccc(OCCN5CCOCC5)cc4)nc32)cc1 [Example 11]
Output: 170 nM

Input: For the compound Fc1ccc(Cn2nnc3ncc(-c4cc5ccccc5[nH]4)nc32)cc1 [Example 12] , what IC50 is on record?
Output: 1150 nM

Input: Look at this compound and give its reported IC50. Oc1ccc(Cn2cnc3ncc(Br)cc32)cc1 [Example 14]
Output: 9600 nM

Input: Any idea what IC50 was measured for Fc1ccc(Cn2cnc3ncc(-c4ccc(OCCN5CCOCC5)cc4)nc32)cc1 [Example 7] ?
Output: > 20000 nM
